Provide the recorded TGI for the entries that follow.
Test system: HOP-62 NSCLC
Assay: NCI tumour cell line growth inhibition, 48 h
Answers are plain numbers, in µM.

[
  {
    "compound": "CCc1ccc(Oc2c(-c3ccc(OCc4ccc(Cl)cc4)cc3O)nn(C)c2C(F)(F)F)cc1",
    "measuredOn": "HOP-62 NSCLC",
    "TGI [µM]": 2.83
  }
]

Items follow; give TGI for each.
1. Nc1ncnc2c1c(-c1ccc(Oc3ccccc3)cc1)nn2CC1SSCC1O (stereo not given)
2. O=C(Nc1cccc2ccccc12)c1cc2ccccc2oc1=O

Output:
[11.1, 49.4]

###

Tested on: MALME-3M melanoma
Assay: NCI tumour cell line growth inhibition, 48 h
reportedProperty: TGI

As a guide, the following entries are already answered.
[
  {
    "molecule": "O=c1[nH]c2ccccc2cc1-c1nnc(Cc2ccccc2)o1",
    "reportedProperty": "TGI",
    "result": "16.2 µM"
  },
  {
    "molecule": "Cc1cccc2c1nc1n2C(=O)c2ccccc2-1",
    "reportedProperty": "TGI",
    "result": "> 100 µM"
  },
  {
    "molecule": "CC(C)C(NCc1c2ccccc2[n+](C)c2ccccc12)C(=O)O (configuration not stated)",
    "reportedProperty": "TGI",
    "result": "19.1 µM"
  },
  {
    "molecule": "COCc1cc2c(s1)C(=O)C1=C(C2=O)C2(C=C(Br)C(=O)C(Br)=C2)CCN1",
    "reportedProperty": "TGI",
    "result": "2.23 µM"
  },
  {
    "molecule": "COc1cccc2c(=O)oc(-c3ccccc3C)nc12",
    "reportedProperty": "TGI",
    "result": "> 100 µM"
  }
]

Items follow; give TGI for each.
1. O=S(Nc1ccccc1)c1ccc(Cl)cc1 (configuration not stated)
2. COc1c(OC2OC(CO)C(O)C(O)C2O)cc2c(c1OC)-c1ccc(OC)c(=O)cc1C(NC(C)=O)CC2 (configuration not stated)
3. O=c1[nH]c2c(Nc3c4ccccc4nc4ccccc34)c([N+](=O)[O-])c(Nc3c4ccccc4nc4ccccc34)c([N+](=O)[O-])c2[nH]1
4. CC1(C)N=C(/C(Cl)=[N+](/[O-])C(=O)c2ccc(Cl)cc2)C(C)(C)N1O
5. CC(=O)c1c(-c2ccc(Cl)cc2)c(C#N)c(=S)n(C2OC(CO)C(O)C(O)C2O)c1C (configuration not stated)
6. CC(=O)CCC1(C(=O)OCC(C)C)CCCC1=O (configuration not stated)
7. Cc1ccc(NC(=O)CC/C(CC(=O)C(C)(C)C)=N/NC(=O)c2cc3ccccc3cc2O)cc1C

Output:
["> 100 µM", "> 100 µM", "3.33 µM", "35.9 µM", "> 100 µM", "> 100 µM", "> 100 µM"]
